Target: T1, monomeric recombinant human Notch3 extracellular domain (containing EGF like domains 1-11) fusion protein (human, UniProt Q9UM47 40-467)
T1 construct: domain: EGF like domains 1-11; also called monomeric rhNotch3
T1 sequence (looked up): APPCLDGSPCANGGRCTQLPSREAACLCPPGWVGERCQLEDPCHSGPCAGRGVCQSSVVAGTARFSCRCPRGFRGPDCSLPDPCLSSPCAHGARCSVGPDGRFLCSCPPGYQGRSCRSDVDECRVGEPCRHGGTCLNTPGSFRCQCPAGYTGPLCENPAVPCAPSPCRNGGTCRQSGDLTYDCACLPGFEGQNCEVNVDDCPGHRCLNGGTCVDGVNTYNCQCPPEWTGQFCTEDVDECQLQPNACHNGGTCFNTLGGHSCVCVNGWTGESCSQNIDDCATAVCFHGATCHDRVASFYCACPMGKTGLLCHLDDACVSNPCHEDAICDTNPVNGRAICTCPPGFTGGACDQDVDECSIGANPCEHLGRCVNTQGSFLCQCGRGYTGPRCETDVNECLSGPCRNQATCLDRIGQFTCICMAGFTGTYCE
Experiment: SPR BIAcore T100, monomeric rhNotch3 analyte, 37 C, average of Table 16 and additional measurements
Measurement Label: Kd (nM)
# number only, unit nM dropped from output

Check out these entries, answers already filled in.
- Binder: "Hu4F11-75 (antibody, human IgG1, kappa, V domains shown, Humanized, human IgG1 kappa; Hv3-23 A28T T62S heavy + Kv2D-29 N28Y kappa) VH: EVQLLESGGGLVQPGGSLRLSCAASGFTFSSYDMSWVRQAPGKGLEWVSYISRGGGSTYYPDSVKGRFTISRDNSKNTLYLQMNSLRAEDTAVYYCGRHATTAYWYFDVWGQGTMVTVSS VL: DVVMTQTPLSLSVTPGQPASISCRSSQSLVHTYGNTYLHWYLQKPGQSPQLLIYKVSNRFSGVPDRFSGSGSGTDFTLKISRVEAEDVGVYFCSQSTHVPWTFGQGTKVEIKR"
  Measurement Label: "Kd"
  Val: 10
- Binder: "Hu4F11-77 (antibody, human IgG1, kappa, V domains shown, Humanized, human IgG1 kappa; Hv3-23 A28T S31N T62S heavy + Kv2D-29 N28Q kappa) VH: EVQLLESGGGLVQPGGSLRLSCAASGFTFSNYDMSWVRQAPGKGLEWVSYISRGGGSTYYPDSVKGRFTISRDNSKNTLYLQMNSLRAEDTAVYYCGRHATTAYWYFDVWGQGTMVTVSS VL: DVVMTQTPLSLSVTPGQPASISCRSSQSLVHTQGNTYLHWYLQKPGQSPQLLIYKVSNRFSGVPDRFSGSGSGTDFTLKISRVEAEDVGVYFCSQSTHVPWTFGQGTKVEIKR"
  Measurement Label: "Kd"
  Val: 8.6

In the following, a different binder is considered.
Kd lookup needed for Hu4F11-70 (antibody, human IgG1, kappa, V domains shown, Humanized, human IgG1 kappa; Hv3-23 A28T S31H T62S heavy + Kv2D-29 N28H kappa) VH: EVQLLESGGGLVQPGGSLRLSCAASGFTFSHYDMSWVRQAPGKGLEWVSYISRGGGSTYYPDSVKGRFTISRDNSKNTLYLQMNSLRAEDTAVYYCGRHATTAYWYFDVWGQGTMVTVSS VL: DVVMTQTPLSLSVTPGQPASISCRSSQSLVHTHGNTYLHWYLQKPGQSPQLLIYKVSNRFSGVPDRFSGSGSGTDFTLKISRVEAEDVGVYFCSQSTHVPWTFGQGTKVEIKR , thanks.
7.5
